Data credit: patent US12180192B2

Listed here are molecules together with their documented Emax.
# STUDY_SYSTEM: THR alpha (Homo sapiens, UniProt P10827)
# Construct: expressed in transfected cells; host or cells: HEK293T (ATCC CRL-3216)
# Sequence (P10827 1-410 isoform P10827-2): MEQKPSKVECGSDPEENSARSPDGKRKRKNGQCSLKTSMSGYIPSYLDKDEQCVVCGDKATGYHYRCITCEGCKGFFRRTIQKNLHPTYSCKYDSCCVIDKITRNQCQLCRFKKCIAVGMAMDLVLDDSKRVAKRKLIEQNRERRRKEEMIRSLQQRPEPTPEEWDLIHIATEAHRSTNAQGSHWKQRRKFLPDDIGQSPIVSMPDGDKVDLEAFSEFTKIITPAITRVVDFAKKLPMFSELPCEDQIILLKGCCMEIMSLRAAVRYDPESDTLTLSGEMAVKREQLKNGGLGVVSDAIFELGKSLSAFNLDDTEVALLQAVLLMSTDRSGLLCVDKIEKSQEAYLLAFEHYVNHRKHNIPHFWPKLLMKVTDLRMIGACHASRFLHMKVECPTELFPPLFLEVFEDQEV
# Sequence (P19793 1-462 partner): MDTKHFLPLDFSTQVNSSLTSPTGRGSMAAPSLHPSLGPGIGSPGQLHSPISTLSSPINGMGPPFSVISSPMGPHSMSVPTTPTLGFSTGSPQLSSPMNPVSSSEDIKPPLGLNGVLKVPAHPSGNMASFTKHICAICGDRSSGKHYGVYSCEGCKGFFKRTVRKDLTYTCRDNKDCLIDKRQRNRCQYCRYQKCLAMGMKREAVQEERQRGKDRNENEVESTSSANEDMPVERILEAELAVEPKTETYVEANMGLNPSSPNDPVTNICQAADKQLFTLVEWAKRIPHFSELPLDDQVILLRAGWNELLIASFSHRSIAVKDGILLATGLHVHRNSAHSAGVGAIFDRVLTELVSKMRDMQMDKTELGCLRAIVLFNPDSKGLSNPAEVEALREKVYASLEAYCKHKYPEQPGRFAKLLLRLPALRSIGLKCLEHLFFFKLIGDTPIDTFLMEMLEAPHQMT
# ASSAY_INFO: HEK293T THR alpha/RXR luciferase reporter assay (Assay 2)
# Type: cell-based
# RUN_CONDITIONS: HEK-293T, Table 5; Assay 2; THRα; read-out: Activity category Assay 2 THRα (Emax)

Record excerpt, results attached:
MOLECULE: Nc1nn(-c2cc(Cl)c(Oc3cc(-c4cccc(Cl)c4)c(=O)[nH]n3)c(Cl)c2)c(=O)[nH]c1=O
STUDY_SYSTEM: THR alpha (Homo sapiens, UniProt P10827)
QUANTITY: Emax
VALUE_OBSERVED: 50 to 75%
//
MOLECULE: Nc1nn(-c2cc(Cl)c(Oc3cc(Cc4ccccc4)c(=O)[nH]n3)c(Cl)c2)c(=O)[nH]c1=O
STUDY_SYSTEM: THR alpha (Homo sapiens, UniProt P10827)
QUANTITY: Emax
VALUE_OBSERVED: < 50%
//
MOLECULE: C[C@H]1C[C@@H](c2cc(Oc3c(Cl)cc(-n4nc(N)c(=O)[nH]c4=O)cc3Cl)n[nH]c2=O)C1 (single isomer, unassigned)
STUDY_SYSTEM: THR alpha (Homo sapiens, UniProt P10827)
QUANTITY: Emax
VALUE_OBSERVED: < 50%

// field: Emax; key: Nc1nn(-c2cc(Cl)c(Oc3n[nH]c(=O)cc3-c3ccc4ccccc4c3)c(Cl)c2)c(=O)[nH]c1=O ; value = < 50%
